So I've got a bunch of molecules here, and I need their logD at 1 min values.
# procedure-text: Octanol-phosphate buffered saline distribution coefficient, log D of the compound at pH 7.4 measured after 1 min by gamma counting
# Format: physicochemical
One number for each entry.

smiles-text	logD at 1 min
O=c1cc(-c2ccc(O)c(O)c2)oc2c(O)c(O)c([123I])cc12	0.99

# input for lookup
Challenge: Indicate its recorded logD at 1 min; the molecule in question is O=c1cc(-c2cc(O)c(O)c([123I])c2)oc2c(O)c(O)ccc12
Response given: 0.98

* * *

# experimental-system: Telomerase reverse transcriptase (Homo sapiens)
# Sequence (O14746 whole entry): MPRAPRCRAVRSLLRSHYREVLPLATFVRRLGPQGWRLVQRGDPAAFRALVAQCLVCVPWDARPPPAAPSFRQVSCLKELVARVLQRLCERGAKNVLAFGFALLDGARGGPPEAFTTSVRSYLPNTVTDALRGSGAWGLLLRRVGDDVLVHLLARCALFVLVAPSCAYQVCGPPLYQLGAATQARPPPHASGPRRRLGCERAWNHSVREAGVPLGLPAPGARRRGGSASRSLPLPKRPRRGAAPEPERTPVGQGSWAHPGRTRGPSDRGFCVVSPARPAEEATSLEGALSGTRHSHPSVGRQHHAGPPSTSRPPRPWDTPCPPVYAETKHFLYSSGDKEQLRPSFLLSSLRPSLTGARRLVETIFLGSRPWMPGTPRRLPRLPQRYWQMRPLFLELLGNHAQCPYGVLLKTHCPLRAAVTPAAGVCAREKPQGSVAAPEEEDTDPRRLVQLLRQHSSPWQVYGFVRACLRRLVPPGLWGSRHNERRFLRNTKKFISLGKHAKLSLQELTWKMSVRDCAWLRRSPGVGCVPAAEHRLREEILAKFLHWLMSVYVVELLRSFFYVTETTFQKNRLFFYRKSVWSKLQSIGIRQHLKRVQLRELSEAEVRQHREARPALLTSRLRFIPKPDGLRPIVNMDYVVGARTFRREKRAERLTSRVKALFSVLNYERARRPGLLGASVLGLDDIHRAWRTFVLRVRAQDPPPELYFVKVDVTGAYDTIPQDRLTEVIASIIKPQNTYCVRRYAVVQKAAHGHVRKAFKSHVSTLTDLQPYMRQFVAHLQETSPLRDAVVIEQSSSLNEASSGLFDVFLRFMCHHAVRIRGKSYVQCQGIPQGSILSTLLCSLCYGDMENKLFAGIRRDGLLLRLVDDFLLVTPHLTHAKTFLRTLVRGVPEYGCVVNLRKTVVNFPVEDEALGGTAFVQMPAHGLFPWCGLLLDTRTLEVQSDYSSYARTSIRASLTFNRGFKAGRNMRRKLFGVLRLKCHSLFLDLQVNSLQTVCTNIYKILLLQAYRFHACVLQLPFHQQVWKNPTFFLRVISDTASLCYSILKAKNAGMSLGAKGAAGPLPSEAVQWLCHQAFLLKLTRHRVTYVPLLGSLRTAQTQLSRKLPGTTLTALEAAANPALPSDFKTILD
# procedure-text: Inhibition of telomerase activity (unknown origin) in cell free system using sulforhodamine labeled primer measured after 30 mins by telomerase repeat amplification protocol assay
measured-quantity: IC50 (µM)
Answers are plain numbers, in µM.

Challenge: State its IC50 for this molecule: O=c1cc(-c2ccc(O)c(O)c2)oc2c(O)c(O)ccc12
Response given: 0.74
